Data origin, for the record: patent US5446037A

# test-target: human plasma thrombin (Homo sapiens)
# Construct: purchased Boehringer, Montreal, Canada
# test-details: Inhibition of thrombin (Chromozym TH spectrophotometric end-point assay, 410 nm)
# Format: biochemical
# measurement-context: Table II, pH 8.6, room temperature, 10 min pre-incubation, 30 min incubation
# Method: Determining the Inhibition of Thrombin Lyophilized human plasma thrombin obtained from Boehringer, Montreal, Canada was dissolved in 0.5M Na, K-phosphate buffer (pH 7.0) and stored at +4° C. […] A single inhibitor concentration (10 μM) was tested using a spectrophotometric end-point assay (1 ml final volume). Enzyme activity was monitored by formation of a product that absorbed light at 410 nm and an enzyme concentration which gave a rate of 0.01-0.02 AU/min was used. […]
Each entry below carries its recorded inhibition at 10 µM.

{"columns": ["compound", "inhibition at 10 µM / %"],
 "data": [
  ["CO[C@H]1C(=O)N2C(C(=O)OC(C)(C)C)=C(COC(C)=O)/C(=C\\c3ccccc3F)S(=O)(=O)[C@H]12 [drawing 37]", 98.5],
  ["CO[C@H]1C(=O)N2C(C(=O)OC(C)(C)C)=C(COC(C)=O)/C(=C/c3ccccc3F)S(=O)(=O)[C@H]12 [drawing 36]", 96.8],
  ["CO[C@H]1C(=O)N2C(C(=O)OC(C)(C)C)=C(COC(C)=O)/C(=C\\c3ccsc3)S(=O)(=O)[C@H]12 [drawing 35]", 98.9],
  ["CO[C@H]1C(=O)N2C(C(=O)OC(C)(C)C)=C(COC(C)=O)/C(=C\\c3ccco3)S(=O)(=O)[C@H]12 [drawing 34]", 94.7]
]}
